Where do the numbers come from? From paper PMC12362582.

Assay: In vivo pharmacokinetics in mice (oral bioavailability, clearance)
Conditions: female, BomTac:NMRI-Foxn1nu, mouse, plasma; mice; AUC_DN oral (typically 30 mg/kg) / AUC_DN IV (5 mg/kg) * 100; read-out: F% (oral bioavailability in mice)
Result Type: bioavailability (%)

[I] Cc1ncsc1-c1ccc([C@H](C[C@@H](C)CN2CCC(c3ccc4c(c3)n(C3CCCC3)c3nc(=O)c5c(Br)cccc5n43)CC2)NC(=O)[C@@H]2C[C@@H](O)CN2C(=O)[C@@H](NC(=O)C2(F)CC2)C(C)(C)C)cc1 [A3-3]
[II] Cc1ncsc1-c1ccc([C@H](CO[C@@H](C)CN2CCC(c3ccc4c(c3)n(C3CCCC3)c3nc(=O)c5c(Br)cccc5n43)CC2)NC(=O)[C@@H]2C[C@@H](O)CN2C(=O)[C@@H](NC(=O)C2(F)CC2)C(C)(C)C)cc1 [B-3]
[III] Cc1ncsc1-c1ccc([C@@H](CC[C@@H](C)CCN2CCC(c3ccc4c(c3)n(C3CCCC3)c3nc(=O)c5c(Br)cccc5n43)CC2)NC(=O)[C@@H]2C[C@@H](O)CN2C(=O)[C@@H](NC(=O)C2(F)CC2)C(C)(C)C)cc1 [A5-4]
[IV] Cc1ncsc1-c1ccc([C@H](C[C@H](C)CN2CCC(c3ccc4c(c3)n(C3CCCC3)c3nc(=O)c5c(Br)cccc5n43)CC2)NC(=O)[C@@H]2C[C@@H](O)CN2C(=O)[C@@H](NC(=O)C2(F)CC2)C(C)(C)C)cc1 [A3-2]
IN: Write the entries in order, lowest recorded bioavailability first. Would you mind listing the labels in the order asked for?
OUT: III, II, IV, I

---

Assay: log kW IAM (IAM.PC.DD2 column) and derived Δlog kW IAM polarity
Type: physicochemical
Settings: IAM.PC.DD2 column, extrapolated, pH 7
Result Type: log kW^IAM

Molecule: Cc1ncsc1-c1ccc([C@H](CCCN2CCC(c3ccc4c(c3)n(C3CCCC3)c3nc(=O)c5c(Br)cccc5n43)CC2)NC(=O)[C@@H]2C[C@@H](O)CN2C(=O)[C@@H](NC(=O)C2(F)CC2)C(C)(C)C)cc1 [A3-1]
log kW^IAM: 2.01
//
Molecule: Cc1ncsc1-c1ccc([C@H](COC(C)(C)CN2CCC(c3ccc4c(c3)n(C3CCCC3)c3nc(=O)c5c(Br)cccc5n43)CC2)NC(=O)[C@@H]2C[C@@H](O)CN2C(=O)[C@@H](NC(=O)C2(F)CC2)C(C)(C)C)cc1 [B-4]
log kW^IAM: 2.00
//
Molecule: Cc1ncsc1-c1ccc([C@H](CC[C@@H](C)CCN2CCC(c3ccc4c(c3)n(C3CCCC3)c3nc(=O)c5c(Br)cccc5n43)CC2)NC(=O)[C@@H]2C[C@@H](O)CN2C(=O)[C@@H](NC(=O)C2(F)CC2)C(C)(C)C)cc1 [A5-3]
log kW^IAM: 2.38
//
Molecule: Cc1ncsc1-c1ccc([C@H](CC[C@H](C)CCN2CCC(c3ccc4c(c3)n(C3CCCC3)c3nc(=O)c5c(Br)cccc5n43)CC2)NC(=O)[C@@H]2C[C@@H](O)CN2C(=O)[C@@H](NC(=O)C2(F)CC2)C(C)(C)C)cc1 [A5-2]
log kW^IAM: 2.37

---

Assay: BRlogD chromatographic lipophilicity (XBridge Shield RP18)
Type: physicochemical
Settings: XBridge Shield RP18 HPLC column (130 Å, 5 µm, 5 cm × 4.6 mm); 60% ACN / 40% 20 mM ammonium acetate, pH 7
Result Type: chromatographic logD

Compound String: Cc1ncsc1-c1ccc([C@H](CO[C@H](C)CN2CCC(c3ccc4c(c3)n(C3CCCC3)c3nc(=O)c5c(Br)cccc5n43)CC2)NC(=O)[C@@H]2C[C@@H](O)CN2C(=O)[C@@H](NC(=O)C2(F)CC2)C(C)(C)C)cc1
chromatographic logD: 2.64
//
Compound String: Cc1ncsc1-c1ccc([C@H](COCCN2CCC(c3ccc4c(c3)n(C3CCCC3)c3nc(=O)c5c(Br)cccc5n43)CC2)NC(=O)[C@@H]2C[C@@H](O)CN2C(=O)[C@@H](NC(=O)C2(F)CC2)C(C)(C)C)cc1
chromatographic logD: 2.64
//
Compound String: Cc1ncsc1-c1ccc([C@H](CCCCCN2CCC(c3ccc4c(c3)n(C3CCCC3)c3nc(=O)c5c(Br)cccc5n43)CC2)NC(=O)[C@@H]2C[C@@H](O)CN2C(=O)[C@@H](NC(=O)C2(F)CC2)C(C)(C)C)cc1
chromatographic logD: 2.46
//
Compound String: Cc1ncsc1-c1ccc([C@@H](CC[C@@H](C)CCN2CCC(c3ccc4c(c3)n(C3CCCC3)c3nc(=O)c5c(Br)cccc5n43)CC2)NC(=O)[C@@H]2C[C@@H](O)CN2C(=O)[C@@H](NC(=O)C2(F)CC2)C(C)(C)C)cc1
chromatographic logD: 2.76
//
Compound String: Cc1ncsc1-c1ccc([C@H](CC[C@H](C)CCN2CCC(c3ccc4c(c3)n(C3CCCC3)c3nc(=O)c5c(Br)cccc5n43)CC2)NC(=O)[C@@H]2C[C@@H](O)CN2C(=O)[C@@H](NC(=O)C2(F)CC2)C(C)(C)C)cc1
chromatographic logD: 2.76

[a] Cc1ncsc1-c1ccc([C@H](C[C@H](C)CN2CCC(c3ccc4c(c3)n(C3CCCC3)c3nc(=O)c5c(Br)cccc5n43)CC2)NC(=O)[C@@H]2C[C@@H](O)CN2C(=O)[C@@H](NC(=O)C2(F)CC2)C(C)(C)C)cc1
[b] Cc1ncsc1-c1ccc([C@H](CCCN2CCC(c3ccc4c(c3)n(C3CCCC3)c3nc(=O)c5c(Br)cccc5n43)CC2)NC(=O)[C@@H]2C[C@@H](O)CN2C(=O)[C@@H](NC(=O)C2(F)CC2)C(C)(C)C)cc1
IN: Response body: label of entry with the larger chromatographic logD; valid values a , b . Write down the label attached to your selection.
OUT: a
(a: 3.29, b: 2.29)
